- Tested on: PC-3 human prostate cancer cells
- Experimental protocol: MTT assay, PC-3 cells
- Type: cell-based
- Conditions: [IC50 in MRC-9 cells] / [IC50 in PC-3 cells]
Kindly apply the following: T if Selectivity index (MRC-9 vs. PC-3) is less than 2, F in every other case.

[
  {
    "Molecule": "CC(C)=CCC/C(C)=C/Cc1c(O)c(O)cc(C(=O)C(=O)c2ccc(O)cc2O)c1O",
    "Label value": "F"
  },
  {
    "Molecule": "CC(C)=CCC/C(C)=C/Cc1c(O)c(O)cc2c3c(oc12)-c1ccc(O)cc1OC3",
    "Label value": "F"
  },
  {
    "Molecule": "CC(C)=CCC[C@@]1(C)C=Cc2c(c(O)cc3c2O[C@H]2c4ccc(O)cc4OC[C@@H]32)O1",
    "Label value": "T"
  },
  {
    "Molecule": "CC(C)=CCC[C@]1(C)C=Cc2c(c(O)cc3c2O[C@H]2c4ccc(O)cc4OC[C@@H]32)O1",
    "Label value": "T"
  },
  {
    "Molecule": "COc1cc2c(c(C/C=C(\\C)CCC=C(C)C)c1O)O[C@H]1c3ccc(O)cc3OC[C@@H]21",
    "Label value": "T"
  },
  {
    "Molecule": "CC(C)=CCC/C(C)=C/Cc1c(O)c(O)cc2c1O[C@H]1c3ccc(O)cc3OC[C@@H]21",
    "Label value": "F"
  },
  {
    "Molecule": "CC(C)=CCC/C(C)=C/Cc1c(O)c(O)cc2c1O[C@H]1c3cc(CC=C(C)C)c(O)cc3OC[C@@H]21",
    "Label value": "F"
  },
  {
    "Molecule": "CC(C)=CCC/C(C)=C/Cc1c(O)c(C(=O)c2c(-c3ccc(O)cc3O)oc3c(C/C=C(\\C)CCC=C(C)C)c(O)c(O)cc23)cc2c1O[C@H]1c3ccc(O)cc3OC[C@@H]21",
    "Label value": "F"
  },
  {
    "Molecule": "N.N.[Cl][Pt][Cl] [Cisplatin, reference compound]",
    "Label value": "T"
  }
]
